Provide the reported inhibition of each item.
- Subject of test: Inhibitor of nuclear factor kappa-B kinase subunit beta (Homo sapiens)
- Test context: at 0.1 µM
Reply numerically in %, unit not repeated.

Measured inhibition, CS(=O)(=O)Nc1cccc(-c2ccc3c(NC(=O)C4CC4)n[nH]c3c2)c1 : 8.91

For record O=S(=O)(CCOCc1ccc(-c2ccc3ncnc(Nc4ccc(OCc5cccc(F)c5)c(Cl)c4)c3c2)o1)c1ccccc1 the listed inhibition is -0.1

So, Cc1ccc(NC(=O)CC2CC2)cc1-c1ccc(C(=O)NCC2CC2)cc1 ? Its inhibition was 3.09

Reported inhibition for Cc1ccc(O)cc1Nc1ccnc2ccc(S(C)(=O)=O)cc12 was 6.57

Consider NS(=O)(=O)c1ccc(N/N=C2\C(=O)Nc3ccc(Cl)cc32)cc1 . Its measured inhibition is 4.8

Data point: NS(=O)(=O)c1ccc(Nc2cc(-c3cccc(O)c3)n[nH]2)cc1 ; inhibition = 4.33

Cc1ccc(Nc2ccnc(Nc3cccc(C(N)=O)c3)n2)cc1O yielded inhibition of 7.9

Form: compound = CN(C)C(=O)O[C@@H]1CN[C@@H](C#Cc2cc3ncnc(Nc4ccc(OCc5cccc(F)c5)c(Cl)c4)c3s2)C1 ; inhibition = 4.79

According to the records, this compound Cc1ccc2c(c1)/C(=N/Nc1ccc(S(N)(=O)=O)cc1)C(=O)N2 displays inhibition of 1.92

Note to self: inhibition recorded for OCc1ccc(-c2nc(-c3ccccn3)c(-c3ccc4c(c3)OCO4)[nH]2)cc1 was 5.29

inhibition reading for O=C1Nc2ccc(-c3cccnc3)cc2C1=Cc1cc(Br)c(O)c(Br)c1 : 4.92

Form: compound = COc1ccc2ncnc(Nc3ccc(OCc4ccccc4)cc3)c2c1 ; inhibition = 2.67

Sample [O-][S+]1CCN(Cc2ccc(-c3ccc4ncnc(Nc5ccc(OCc6ccccc6)c(Cl)c5)c4c3)o2)CC1 ; inhibition observed: 2.83

Record COc1ccc(-c2nn3ncccc3c2-c2ccnc(Nc3cccc(C(F)(F)F)c3)n2)cc1 . Reported inhibition: 3.3

get_value(item= Cc1cc(Cl)cc2c1NC(=O)C2=NNc1ccc(S(N)(=O)=O)cc1 , readout=inhibition) returns 8.97

---

- Subject of test: Inhibitor of nuclear factor kappa-B kinase subunit beta (Homo sapiens)
- Sequence (whole entry): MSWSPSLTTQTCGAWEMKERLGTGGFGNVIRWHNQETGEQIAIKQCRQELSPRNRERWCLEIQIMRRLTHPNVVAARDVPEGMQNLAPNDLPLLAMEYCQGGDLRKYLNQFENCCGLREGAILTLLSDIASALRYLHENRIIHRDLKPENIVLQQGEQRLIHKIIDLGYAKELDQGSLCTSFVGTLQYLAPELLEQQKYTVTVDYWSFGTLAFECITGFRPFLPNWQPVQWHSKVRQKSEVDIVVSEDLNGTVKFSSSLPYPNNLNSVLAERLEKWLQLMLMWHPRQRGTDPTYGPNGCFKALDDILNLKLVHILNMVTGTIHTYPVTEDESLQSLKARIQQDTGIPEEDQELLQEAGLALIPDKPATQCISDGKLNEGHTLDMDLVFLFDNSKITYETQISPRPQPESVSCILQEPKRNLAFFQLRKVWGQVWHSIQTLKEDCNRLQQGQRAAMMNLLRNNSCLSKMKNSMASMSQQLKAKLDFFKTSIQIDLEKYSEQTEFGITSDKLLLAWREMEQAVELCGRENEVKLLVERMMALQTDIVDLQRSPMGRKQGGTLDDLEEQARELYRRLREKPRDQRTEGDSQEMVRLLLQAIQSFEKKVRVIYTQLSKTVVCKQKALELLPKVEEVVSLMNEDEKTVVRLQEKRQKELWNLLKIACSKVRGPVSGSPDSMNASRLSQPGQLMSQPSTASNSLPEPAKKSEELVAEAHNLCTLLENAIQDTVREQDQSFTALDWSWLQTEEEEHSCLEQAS
- Test context: at 1 µM
Would you kindly list inhibition for each of these compounds?
Give just the numeric value; % need not be written.

Record O=C1Nc2ccccc2/C1=C/Nc1ccc2[nH]c(=O)[nH]c2c1 , field inhibition: 11.6

Reported inhibition ( Oc1cccc(-c2nc(-c3ccccc3)[nH]c2-c2ccncc2)c1 ) = 3.12

Lab book: inhibition of Cc1ccc(NC(=O)CC2CC2)cc1-c1ccc(C(=O)NCC2CC2)cc1 noted as 3.67

Measured inhibition of CCOc1nccc2c1nc(-c1nonc1N)n2CC : 5.41

// inhibition value for CN(C)C(=O)O[C@@H]1CN[C@@H](C#Cc2cc3ncnc(Nc4ccc(OCc5cccc(F)c5)c(Cl)c4)c3s2)C1 : 2.73

Kindly note the recorded inhibition for CC(C)c1ccc(Nc2nccc(-c3cnn4ncccc34)n2)cc1 , which is 23

Item: ON=C1CCc2cc(-c3nc(C4CCNCC4)[nH]c3-c3ccncc3)ccc21 | inhibition: 4.62

Input FC(F)(F)c1ccc(-c2nn3ncccc3c2-c2ccnc(Nc3ccc4c(c3)OCCO4)n2)cc1 . Output inhibition: 2.22

GET /value?item= COC(=O)c1ccc2c(c1)C(=Cc1cc(Br)c(O)c(Br)c1)C(=O)N2 &field=inhibition returns 8.75

The compound identified as COc1cccc(-n2nc(C)c3c(N/N=C(\C)c4ccncc4)ncnc32)c1 registered its inhibition at 1.94

Briefly, inhibition measured for Cc1ccc2c(-c3ccnc(Nc4cccc(C(F)(F)F)c4)n3)c(-c3ccccc3)nn2n1 : 8.3

response.value for NS(=O)(=O)c1cccc(Nc2cc(-c3ccc(F)cc3)n[nH]2)c1 (field: inhibition) = 4.5

Value of inhibition reported for the compound Cc1ccc2c(c1)/C(=N/Nc1ccc(S(N)(=O)=O)cc1)C(=O)N2 is 1.12

Query CS(=O)(=O)CCNCc1nc(-c2ccc3ncnc(Nc4ccc(OCc5cccc(C(F)(F)F)c5)cc4)c3c2)cs1 yields inhibition of 1.84

inhibition recorded for this compound, Cc1ccc2c(-c3ccnc(Nc4ccc5c(c4)OCCO5)n3)c(-c3ccc(C(F)(F)F)cc3)nn2n1 , is -5.04

Just so you know, measured inhibition for COC(=O)Nc1nc2cc(Oc3ccc(NC(=O)Nc4cccc(Br)c4)cc3)ccc2[nH]1 came out at 7.62

inhibition in this record for Cc1ccc(C(=O)NC2CC2)cc1-c1ccc2[nH]ncc2c1 : -2.64

# compound COc1cc(Nc2nccc(-c3cnn4ncccc34)n2)cc(OC)c1 ; its inhibition = 24.5

Sample Nc1nccc(-c2c(-c3ccc(F)cc3)nn3cc(C(F)(F)F)ccc23)n1 ; inhibition observed: 0.86

// inhibition value for COc1ccc(-c2nn3ncccc3c2-c2ccnc(Nc3cccc(C(F)(F)F)c3)n2)cc1 : 4.64

Consider Cc1ccc(Nc2ccnc(Nc3cccc(C(N)=O)c3)n2)cc1O . Its measured inhibition is 26.8

---

So I've got a bunch of compounds here, and I need their inhibition values.
- Subject of test: Tyrosine-protein kinase Tec (Homo sapiens)
- Sequence (whole entry): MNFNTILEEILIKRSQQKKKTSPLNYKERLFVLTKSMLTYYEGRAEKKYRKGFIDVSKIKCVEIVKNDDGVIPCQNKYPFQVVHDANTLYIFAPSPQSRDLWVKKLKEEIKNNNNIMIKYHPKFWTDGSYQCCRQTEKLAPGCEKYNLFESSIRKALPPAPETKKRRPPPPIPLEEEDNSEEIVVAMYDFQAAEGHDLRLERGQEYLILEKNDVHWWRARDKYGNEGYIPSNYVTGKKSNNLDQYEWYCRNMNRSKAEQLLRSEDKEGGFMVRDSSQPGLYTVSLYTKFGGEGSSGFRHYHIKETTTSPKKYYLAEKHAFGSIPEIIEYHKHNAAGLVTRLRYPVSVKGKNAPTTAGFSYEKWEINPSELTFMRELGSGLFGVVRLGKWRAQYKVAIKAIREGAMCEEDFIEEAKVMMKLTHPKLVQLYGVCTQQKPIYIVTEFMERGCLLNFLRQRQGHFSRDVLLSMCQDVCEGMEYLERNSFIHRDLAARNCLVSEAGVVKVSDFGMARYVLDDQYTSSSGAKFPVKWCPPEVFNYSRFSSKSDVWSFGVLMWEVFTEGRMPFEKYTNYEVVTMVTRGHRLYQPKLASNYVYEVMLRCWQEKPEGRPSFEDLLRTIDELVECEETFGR
- Test context: at 0.1 µM
- Description: GSK_PKIS: TEC mean inhibition at 0.1 uM [Nanosyn]
Provide the reading as a plain figure in %.

Field inhibition (entry CN(C)c1cc2c(Nc3ccc4c(cnn4Cc4ccccc4)c3)ncnc2cn1 ) reads 3.97

Input OCc1ccc(-c2nc(-c3ccccn3)c(-c3ccc4c(c3)OCO4)[nH]2)cc1 . Output inhibition: 7.61

The measured inhibition associated with COc1cccc(-n2ncc3c(N/N=C/c4ccc(S(C)(=O)=O)cc4)ncnc32)c1 reads -0.19

// recorded inhibition for NS(=O)(=O)c1ccc(N/N=C2\C(=O)Nc3ccc(Cl)cc32)cc1 : 4.2

Query CCCN1CCCC(c2ccc(Nc3nc(Nc4cc(F)ccc4C(N)=O)c4cc[nH]c4n3)c(OC)c2)C1 (stereo not given) yields inhibition of 4.67

---

- Subject of test: Phosphatidylinositol 4-kinase beta (Homo sapiens)
- Test context: at 0.1 µM
Provide the reported inhibition of each item.
Numeric answer only, unit % assumed.

The molecule listed as Cc1ccc2c(c1)/C(=N/Nc1ccc(S(N)(=O)=O)cc1)C(=O)N2 has a reported inhibition of 6.34

Looking up NC(=O)c1cccc(Nc2nccc(Nc3cccc(F)c3)n2)c1 , I see its inhibition listed as 3.27

Short answer for Nc1ccc(C#Cc2cncnc2Nc2ccc(OCc3cccc(F)c3)c(Cl)c2)cc1 : inhibition was 5.59

inhibition reading for Cc1ccc2c(-c3ccnc(Nc4ccc5c(c4)OCCO5)n3)c(-c3ccc(C(F)(F)F)cc3)nn2n1 : 6.55

Query NS(=O)(=O)c1cccc(Nc2cc(-c3ccc(F)cc3)n[nH]2)c1 yields inhibition of 2.18

Summary for this molecule, COC(=O)c1ccc2c(c1)C(=Cc1cc(Br)c(O)c(Br)c1)C(=O)N2 : inhibition is 43.6

The value of inhibition measured for the molecule COc1cc2ncnc(Nc3ccc4c(cnn4Cc4ccccc4)c3)c2cc1OC turned out to be 1.81

Lab note: measured inhibition of NS(=O)(=O)c1cccc(-c2cc3ccncc3cc2OCc2ccccc2)c1 was -1.89

Query CC(C)c1ccc2c(c1)NC(=O)/C2=N/Nc1ccc(S(N)(=O)=O)cc1 yields inhibition of 0.05

The molecule listed as Nc1nccc(-c2c(-c3ccc(F)cc3)nn3cc(C(F)(F)F)ccc23)n1 has a reported inhibition of -4.79
